assay: yeast display, Sf9 membrane polyspecificity reagent, FACS + sequencing; frameworks hold sequencing errors
measuredEndpoint: polyreactivity (PSR sort gate)

Examples with answers:
INSERT INTO measurements (querysequence, measuredendpoint, result) VALUES
  ('QVQLVEKGGCLVQAGGSLSLSCAAYGRTFILNSMGCYRQAPWKEMELVAAISWSGGSTYYADSVKGRFTISRDNAKNTVYLQMNSLKPEDTAVYYCAAETYAYLFHTYDYWGQGTQVTVSS', 'polyreactivity (PSR sort gate)', 'low polyreactivity'),
  ('QVQLVESGGGLVQAGGSLRLSCAASGLTFVDYAMGWYRQAPGKERELVADYYFQRWFYGLRRLCEGALHNFTRQCQEYRNLQMNSLKPEDTAVYYCNTDGPTVAYSEYYYWGQGTQVTVSS', 'polyreactivity (PSR sort gate)', 'low polyreactivity'),
  ('QVQLVESGGGLVQAGGSLRLSCAASGFTFRSNAMGWYRQAPGKVRELVAAISYSGDSTYYADSVKGRFTISRDNAMNTVYLQMNSLKPEDTAVYYCNAVGSGYRSWYDYWGQGTQVTVSS', 'polyreactivity (PSR sort gate)', 'high polyreactivity'),
  ('QVQLVESGGGLVQAGGSLRLSCAASGITFKAYAMGWYRQAPGKDRELVAAINTSGARTYYADSVKGRFTISRDNAKNTVYLQMNSLKPEDTAVYYCNARLHQQEGDYWGQGTQVTVSS', 'polyreactivity (PSR sort gate)', 'low polyreactivity');

Proceeding to the next sequence to report its polyreactivity (PSR sort gate).
Tell me the measured polyreactivity (PSR sort gate) of QVQLVESGGGLVQAGGSLRLSSAASGITFYGYARGWYRQPPGKEREFVAAISYSGGSTYYADSVKGRFTISRDNAKNTVYLQMNSLKPEDTAVYYCAARVGRSLYGYWGLGTQVTVSS , please. high polyreactivity

---

test: yeast display, Sf9 membrane polyspecificity reagent, FACS + sequencing; frameworks hold sequencing errors
measuredEndpoint: polyreactivity (PSR sort gate)

INSERT INTO measurements (querysequence, result) VALUES
  ('QVQLVESGGGLVQAGGSLRLSCAASGLTFYHVNAMGWYRQAPGKERELVAGISTRGGSTYYADSVKGRFTISRDNAKNTVYLQMNSLKPEDTAVYYCAAYGSAAQKYPYDRPYRYGYWGQGTQVTVSS', 'high polyreactivity'),
  ('QVQLVESGGGLVQAGGSLRLSCAASGFIFDRNTMGWYRQAPGKERELVAAISRSGGSTYYADSVKGRFTISRDNAKNTVYLQMNSLKPEDTAVYYCAALYYYRNRSYDYWGQGTQVTVSS', 'high polyreactivity'),
  ('QVQLVESGGGLVQAGGSLRLSCDASGSIFRSYAMGWYRQAPGKERELVASITRSSGSTYYADSVKGRFTISRDNAKNTVYLQMNSLKPEDTAVYYCAAYTGVRGYYYWGQGTQVTVSS', 'high polyreactivity');

---

test: yeast display, Sf9 membrane polyspecificity reagent, FACS + sequencing; frameworks hold sequencing errors
measuredEndpoint: polyreactivity (PSR sort gate)

INSERT INTO measurements (querysequence, measuredendpoint, result) VALUES
  ('QVQLVESGGGVVQAGGSLRISCDASGRTFWNYAMGWYRQAPGLERELVAVIRFSDGSTYYADSVKGRFTISRDNAKNTVYLQRNSLKPEDTAVYYCAAKGPRRWGSGFDYWGQGTQVTVSS', 'polyreactivity (PSR sort gate)', 'low polyreactivity'),
  ('QVQLVESGGGLVQAGGSLRLSCAASGLIFYDNMGWYGPAPGKERELVAAISSSGGSTSYADSVKGRFTISRDNAKNTVYLQMNSLKPEDTAVYYCAADSYPAYLGFVCFDYWGQGTQVTVSS', 'polyreactivity (PSR sort gate)', 'low polyreactivity');
